- target-entity: p15-EC RNH domain fragment (Human immunodeficiency virus type 1 group M subtype B, UniProt P04585, DELINS1094-1102[…])
- procedure-text: NMR 1H-15N HSQC chemical shift titration, dissociation constant
- Assay type: binding, HIV-1 / Escherichia coli chimera
- test-settings: read-out: Inhibitor dissociation constant, KD; residue I114 (526), + 20 mM Mg2+
test-readout: Kd (µM)
Field: numeric (µM). Do not append units.

Prompt: Quick one: Kd for O=C(O)c1ccc(-c2cccc(/C=N/NC(=O)c3cc(O)c(O)c(O)c3)c2)cc1 ?
Response: 321

---

- target-entity: p15-EC RNH domain fragment (Human immunodeficiency virus type 1 group M subtype B, UniProt P04585, DELINS1094-1102[…])
- procedure-text: NMR 1H-15N HSQC chemical shift titration, dissociation constant
- Type: binding, HIV-1 / Escherichia coli chimera
- test-settings: read-out: Inhibitor dissociation constant, KD; residue K93, + 20 mM Mg2+
test-readout: pKd
To interpret pKd, take it as minus log10 of a concentration measured in moles per litre.

Prompt: // query pKd value for entry O=C(O)c1ccc(-c2cccc(/C=N/NC(=O)c3cc(O)c(O)c(O)c3)c2)cc1
Response: 3.34
